# Tested on: biotinyl-Ile-oxazolone
# PROCEDURE_TEXT: self-aminoacylation, catalytic enhancement (BIO) (fold over background); higher = more active; k-Seq, kA / k0A0; sequences stand for … in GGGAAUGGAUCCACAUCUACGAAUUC…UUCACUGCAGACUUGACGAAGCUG
This sample holds only a part of the variants without activity.
METRIC_NAME: self-aminoacylation
Just the number, please.

Worked cases, self-aminoacylation given:
AUUCACCUCGGUCAUCGGAUG [Fam2.2 aminoacylation ribozyme variant] ... 0.927
AAGUUUGCUAACAGUCGCAAA [Fam3.1 aminoacylation ribozyme variant] ... 1.43
AUUGCCCUGGUUAUCGAGUGA [Fam2.1 aminoacylation ribozyme variant] ... 4.09
AAGUUUGGUAAUAGUCACAAG [Fam3.1 aminoacylation ribozyme variant] ... 1.04
AUUACCCUGGUCAUCGCGUGU [Fam2.1 aminoacylation ribozyme variant] ... 4.14

Data request, read-out self-aminoacylation, for AUGUUUGCUAAUAGCCGCAAG [Fam3.1 aminoacylation ribozyme variant]
1.28

Proceed to CUAUUUCAAACAAUUGGUCUG [Fam1A.1 aminoacylation ribozyme variant]
1.01

Proceed to UUUACCCUGGUCAUCGGGUGA [Fam2.1 aminoacylation ribozyme variant]
15.2

Proceed to ACUACCCUGAUCAUCGAGUGA [Fam2.1 aminoacylation ribozyme variant]
3.87

Proceed to CCACACUUUAAGUAAUCGGUC [Fam1B.1 aminoacylation ribozyme variant]
0.653

Proceed to CCAGACUUCAAGCAAUCGGUG [Fam1B.1 aminoacylation ribozyme variant]
4.56

Proceed to AAGCUUGCUAAUACUCGCAAG [Fam3.1 aminoacylation ribozyme variant]
1.5

Proceed to CCGCACUUCAAGCAAUCGGAC [Fam1B.1 aminoacylation ribozyme variant]
1.07

Proceed to AUUCACAUAGGUCAUAGGGUG [Fam2.2 aminoacylation ribozyme variant]
1.55

Proceed to GGUCACCUAGGUCAUCGGGUG [Fam2.2 aminoacylation ribozyme variant]
4.07

---

Recorded self-aminoacylation, one value per entry.
# Tested on: biotinyl-Phe-oxazolone
# PROCEDURE_TEXT: self-aminoacylation, catalytic enhancement (BFO) (fold over background); higher = more active; k-Seq, kA / k0A0; sequences stand for … in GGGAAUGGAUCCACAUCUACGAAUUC…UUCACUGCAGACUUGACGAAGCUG
Variants at the floor of the assay were thinned out.
Just the number, please.

Worked cases, self-aminoacylation given:
AUCACCCUGGUCAGCGAGUGA [Fam2.1 aminoacylation ribozyme variant] ... 38.2
AAGUUUACGAAUAGUCGCAAG [Fam3.1 aminoacylation ribozyme variant] ... 2.82
CUACUUCAAAAAGUCGGUCUG [Fam1A.1 aminoacylation ribozyme variant] ... 0.598

Data request, read-out self-aminoacylation, for CUACUUCACACACUCGGUCUG [Fam1A.1 aminoacylation ribozyme variant]
1.31

Proceed to AUUACCCUGGCCAUGGAGUGA [Fam2.1 aminoacylation ribozyme variant]
19.7

Proceed to AAGUUGGCUAAGAGUCGCAAG [Fam3.1 aminoacylation ribozyme variant]
1.91

---

# System: biotinyl-Phe-oxazolone
# PROCEDURE_TEXT: self-aminoacylation, catalytic enhancement (BFO) (fold over background); higher = more active; k-Seq, kA / k0A0; sequences stand for … in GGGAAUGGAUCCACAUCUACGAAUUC…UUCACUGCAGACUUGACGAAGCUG
Variants at the floor of the assay were thinned out.
METRIC_NAME: self-aminoacylation
Just the number, please.

Worked cases, self-aminoacylation given:
GUUCACCUACGUCAUCGGGUG [Fam2.2 aminoacylation ribozyme variant] ... 31
UCACACUUCAAGGAAUCGGUC [Fam1B.1 aminoacylation ribozyme variant] ... 5.43
CCACACUUCAAGCCAUCGGUG [Fam1B.1 aminoacylation ribozyme variant] ... 31.3
AUUACCCUGGUUAUCGAGGGA [Fam2.1 aminoacylation ribozyme variant] ... 1.16

Lab note: next sequence to report on.
Data request, read-out self-aminoacylation, for AUUACCCGGGUCAUCGGGUGA [Fam2.1 aminoacylation ribozyme variant]
132

---

# Test system: biotinyl-Leu-oxazolone
# PROCEDURE_TEXT: self-aminoacylation, catalytic enhancement (BLO) (fold over background); higher = more active; k-Seq, kA / k0A0; sequences stand for … in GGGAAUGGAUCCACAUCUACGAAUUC…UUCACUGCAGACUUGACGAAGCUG
Fewer inactive variants are shown than the library holds.
Recorded self-aminoacylation, one value per entry.

Worked cases, self-aminoacylation given:
AAGUAUGCUAAUAUUCGCAAG [Fam3.1 aminoacylation ribozyme variant] ... 2.04
CUACUUCAAACACUCGGGCUG [Fam1A.1 aminoacylation ribozyme variant] ... 2.06
AUUACCCUGGACAUCGACUGA [Fam2.1 aminoacylation ribozyme variant] ... 0.529
AAGUUGGUUAAUAGUCGCAAG [Fam3.1 aminoacylation ribozyme variant] ... 1.46
AAUCACCUGGGUCAUCGGGUG [Fam2.2 aminoacylation ribozyme variant] ... 4.47

Data request, read-out self-aminoacylation, for CUUACCCUGGUCAUCUAGUGA [Fam2.1 aminoacylation ribozyme variant]
8.12

Proceed to CUACUCCGAACAAUCGGUCUG [Fam1A.1 aminoacylation ribozyme variant]
0.889

Proceed to AUUAACCAAGGUCAUCGGGUG [Fam2.2 aminoacylation ribozyme variant]
9.4

Proceed to AUUAUCCUUGUCAUCGAGUGA [Fam2.1 aminoacylation ribozyme variant]
6.7

---

# System: biotinyl-Ile-oxazolone
# PROCEDURE_TEXT: self-aminoacylation, catalytic enhancement (BIO) (fold over background); higher = more active; k-Seq, kA / k0A0; sequences stand for … in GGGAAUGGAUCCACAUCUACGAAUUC…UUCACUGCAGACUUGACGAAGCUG
Variants at the floor of the assay were thinned out.
Classification field: enter met for self-aminoacylation values not below 1, not met for values below it.

Look over these answered cases.
CCAUACUUCAAGCAAUGGGUC [Fam1B.1 aminoacylation ribozyme variant] ... met
CUACUUCUAACAAUCGGUCUU [Fam1A.1 aminoacylation ribozyme variant] ... not met
UUUCACCUAGGUCAUAGGGUG [Fam2.2 aminoacylation ribozyme variant] ... met
AUUCCCCUAGAUCAUCGGGUG [Fam2.2 aminoacylation ribozyme variant] ... met
AUUACACUGGUCCUCGAGUGA [Fam2.1 aminoacylation ribozyme variant] ... met

Entry AUUACCCUGGUCAUCGAGUUG [Fam2.1 aminoacylation ribozyme variant] : is its self-aminoacylation no less than 1?
met

Proceed to CUACACUUCAAGCAAUCAGUC [Fam1B.1 aminoacylation ribozyme variant]
not met

---

# System: biotinyl-Leu-oxazolone
# PROCEDURE_TEXT: self-aminoacylation, catalytic enhancement (BLO) (fold over background); higher = more active; k-Seq, kA / k0A0; sequences stand for … in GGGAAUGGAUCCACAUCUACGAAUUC…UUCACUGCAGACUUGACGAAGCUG
Fewer inactive variants are shown than the library holds.
METRIC_NAME: self-aminoacylation
Just the number, please.

AUUACCCUGGUCAGCGAGUGU [Fam2.1 aminoacylation ribozyme variant] ... 3.85

Data request, read-out self-aminoacylation, for CAACACUUCAAGCCAUCGGUC [Fam1B.1 aminoacylation ribozyme variant]
1.74

Proceed to AAGUUAGCUCAUAGUCGCAAG [Fam3.1 aminoacylation ribozyme variant]
2.45

Proceed to CCACGAUUCAAGCAAUCGGUC [Fam1B.1 aminoacylation ribozyme variant]
1.17

Proceed to AUGUUUGCUAAUAGUCGCAUG [Fam3.1 aminoacylation ribozyme variant]
1.72

Proceed to AUUAACCUCGGUCAUCGGGUG [Fam2.2 aminoacylation ribozyme variant]
5.54

Proceed to CGACUUCAAGCAAUCGGUCUG [Fam1A.1 aminoacylation ribozyme variant]
2.13

Proceed to CGACACUUCAAGCAAUUGGUC [Fam1B.1 aminoacylation ribozyme variant]
0.668

Proceed to CUACUUCAAACAUUCGGUCUU [Fam1A.1 aminoacylation ribozyme variant]
1.03

---

# Tested on: biotinyl-Val-oxazolone
# PROCEDURE_TEXT: self-aminoacylation, catalytic enhancement (BVO) (fold over background); higher = more active; k-Seq, kA / k0A0; sequences stand for … in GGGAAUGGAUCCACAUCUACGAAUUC…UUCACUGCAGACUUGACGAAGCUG
This sample holds only a part of the variants without activity.
Classification field: enter class 1 for self-aminoacylation values not below 3, class 0 for values below it.

Look over these answered cases.
CCACACUUCACGCAACCGGUC [Fam1B.1 aminoacylation ribozyme variant] ... class 0
AUUCCCCUAGGUCUUCGGGUG [Fam2.2 aminoacylation ribozyme variant] ... class 1
AUUACCCUGGACAUCCAGUGA [Fam2.1 aminoacylation ribozyme variant] ... class 0
CUUCUUCAAACAAUCGGCCUG [Fam1A.1 aminoacylation ribozyme variant] ... class 0
AAGUUUGCUAAGAGACGCAAG [Fam3.1 aminoacylation ribozyme variant] ... class 0

Entry AUUACCCUUCUCAUCGAGUGA [Fam2.1 aminoacylation ribozyme variant] : is its self-aminoacylation no less than 3?
class 1

Proceed to AUUGCCCUCGUCAUCGAGUGA [Fam2.1 aminoacylation ribozyme variant]
class 0

Proceed to ACUACCCUGAUCAUCGAGUGA [Fam2.1 aminoacylation ribozyme variant]
class 1

Proceed to GACUUUGCUAAUAGUCGCAAG [Fam3.1 aminoacylation ribozyme variant]
class 0

Proceed to AAGUUUGCUAAUAGUCACGAG [Fam3.1 aminoacylation ribozyme variant]
class 0
